Compiled notes: published pKi values involving Equilibrative nucleoside transporter 1 (Homo sapiens, UniProt Q99808).
# reply with the number alone; pKi is -log10 of concentration in mol/L

Worked examples, 5 molecules total:
Molecule | Observable | Recorded number
OC[C@H]1O[C@@H](n2cnc3c(SCc4ccccc4)ncnc32)[C@H](O)[C@@H]1O | pKi | 7.70
OC[C@H]1O[C@@H](n2cnc3c(SCc4ccc(OC(F)(F)F)cc4)ncnc32)[C@H](O)[C@@H]1O | pKi | 8.15
OC[C@H]1O[C@@H](n2cnc3c(SCc4cccc(Br)c4)ncnc32)[C@H](O)[C@@H]1O | pKi | 7.68
O=[N+]([O-])c1ccc(CSc2ncnc3c2ncn3Cc2ccc(F)c(F)c2)cc1 | pKi | 6.19
O=[N+]([O-])c1ccc(CSc2ncnc3c2ncn3Cc2ccccc2-c2cccc(C(F)(F)F)c2)cc1 | pKi | 7.07

Form: item "OC[C@H]1O[C@@H](n2cnc3c(SCc4ccccc4F)ncnc32)[C@H](O)[C@@H]1O" ; test system Equilibrative nucleoside transporter 1 (Homo sapiens, UniProt Q99808); pKi: 7.62

Form: item "OC[C@H]1O[C@@H](n2cnc3c(SCc4ccccc4Cl)ncnc32)[C@H](O)[C@@H]1O" ; test system Equilibrative nucleoside transporter 1 (Homo sapiens, UniProt Q99808); pKi: 6.93

Form: item "OC[C@H]1O[C@@H](n2cnc3c(SCc4ccc(Br)cc4)ncnc32)[C@H](O)[C@@H]1O" ; test system Equilibrative nucleoside transporter 1 (Homo sapiens, UniProt Q99808); pKi: 7.94

Form: item CCC(C)CNc1nc2c(SCc3ccccc3)ncnc2n1C1O[C@H](CO)[C@@H](O)[C@H]1O (some centres undefined) ; test system Equilibrative nucleoside transporter 1 (Homo sapiens, UniProt Q99808); pKi: 8.44

====

Compiled notes: published Ki values involving Equilibrative nucleoside transporter 1 (Homo sapiens, UniProt Q99808).
Only the number, expressed in nM, is required.

Structure string | Target system | Recorded number
OC[C@H]1O[C@@H](n2cnc3c(SCc4ccccc4Br)ncnc32)[C@H](O)[C@@H]1O | Equilibrative nucleoside transporter 1 (Homo sapiens, UniProt Q99808) | 134

The reported value for "O=[N+]([O-])c1ccccc1CSc1ncnc2c1ncn2[C@@H]1O[C@H](CO)[C@@H](O)[C@H]1O" in terms of Ki is 115

The reported value for "O=[N+]([O-])c1ccc(CSc2ncnc3c2ncn3Cc2ccc(I)cc2)cc1" in terms of Ki is 130

The reported value for "Cc1ccccc1-c1ccccc1Cn1cnc2c(SCc3ccc([N+](=O)[O-])cc3)ncnc21" in terms of Ki is 126

The reported value for "O=[N+]([O-])c1ccc(CSc2ncnc3c2ncn3Cc2ccccc2-c2ccsc2)cc1" in terms of Ki is 89

The reported value for "CCCNc1nc2c(NC3CCCC3)ncnc2n1[C@@H]1O[C@H](CO)[C@@H](O)[C@H]1O" in terms of Ki is 97
